System Name: UniProt P11229
Sequence (P11229 whole entry): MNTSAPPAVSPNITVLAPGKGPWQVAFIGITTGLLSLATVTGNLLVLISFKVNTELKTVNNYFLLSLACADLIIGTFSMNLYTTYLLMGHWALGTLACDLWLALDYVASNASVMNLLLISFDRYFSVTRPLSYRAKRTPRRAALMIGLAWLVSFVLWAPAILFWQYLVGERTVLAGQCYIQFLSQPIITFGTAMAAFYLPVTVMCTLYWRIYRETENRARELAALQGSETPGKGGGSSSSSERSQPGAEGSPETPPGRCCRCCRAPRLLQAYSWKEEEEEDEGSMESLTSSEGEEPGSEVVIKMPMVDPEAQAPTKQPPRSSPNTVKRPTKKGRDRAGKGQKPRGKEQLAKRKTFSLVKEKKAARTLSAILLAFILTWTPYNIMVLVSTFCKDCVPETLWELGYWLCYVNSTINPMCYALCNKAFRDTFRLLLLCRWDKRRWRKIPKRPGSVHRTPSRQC
Test Details: mAChR M1 cell-based functional assay (calcium mobilization), agonist mode: compound alone, Emax relative to acetylcholine maximum
Experimental Setup: relative to the maximum for acetylcholine
Reported Metric: Emax (%)
# value in %; strip the unit string

Give reported Emax value for "[2H]C1([2H])c2ncccc2C(=O)N1Cc1c(F)cc(-c2ccc(OC3CC3)c3nn(C)cc23)cc1Cl" 7

Give reported Emax value for "[2H]C1([2H])c2ncccc2C(=O)N1Cc1ccc(-c2ccc(OC)c3nn(C([2H])([2H])[2H])cc23)cc1C" 4

Give reported Emax value for "[2H]C1([2H])c2ncccc2C(=O)N1Cc1ccc(-c2cc3cn(C)nc3cc2F)cc1" 2

Give reported Emax value for "[2H]C1([2H])c2ncccc2C(=O)N1Cc1ccc(-c2ccc3nn(C)cc3c2C)cc1" 2
